- test_method_notes: probe aLefty1 binding on compound microarray – biochemical, small-molecule microarray, 635/667 nm fluorescence, primary screen (AID 1153);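 further: score merges spot fluorescence with signal-to-noise ratio from the scanned slide images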
- experimental_context: higher = more signal
Listed below: composite z-score values for each entry.
API note: the answer field is a bare number with no unit suffix.

Solved entries:
compound=COC(=O)[C@@H]1N=C(c2ccc(OCCCO)cc2)O[C@@H]1c1ccccc1 observable="composite z-score" readout_value=-0.717
compound=CCOC(=O)C1=C[C@@H](c2ccccc2)N(S(=O)(=O)c2ccc(C)cc2)[C@H]1c1ccc(OC)cc1 observable="composite z-score" readout_value=1.02
compound=CCOC(=O)[C@@H]1CCCCN1C(=O)C(=O)OC observable="composite z-score" readout_value=-0.0515
compound=C=CCNC(=O)[C@@H]1[C@H]2C(=O)O[C@H](c3ccccc3)[C@H](c3ccccc3)N2[C@H](c2ccc(OCCO)cc2)[C@@]12C(=O)N(C(=O)OCCOC)c1ccc(C#Cc3ccc(OC)cc3)cc12 observable="composite z-score" readout_value=0.302
compound=C=C(COC)/C(=C/C[C@H](OC(=O)c1ccncc1)c1ccc(CO)o1)c1cnc2ccccc2c1 observable="composite z-score" readout_value=0.213
compound=CCCC[C@@H](O)C1=C(COC)C[C@H]2C(=O)N(C)C(=O)[C@H]2[C@H]1CO observable="composite z-score" readout_value=0.218
compound=COc1ccc(C#Cc2ccc3c(c2)[C@]2(C(=O)N3)[C@H](c3ccc(OCCO)cc3)N3[C@H](c4ccccc4)[C@H](c4ccccc4)OC(=O)[C@H]3[C@@H]2C(=O)NC[C@H](O)c2ccccc2)cc1 observable="composite z-score" readout_value=0.145
compound="CC(C)c1ccc(NN2C(C(O)c3ccc(F)cc3)C=CC3C(=O)N(c4ccccc4)C(=O)C32)cc1 (stereo not given)" observable="composite z-score" readout_value=0.498
compound="CC(C)C(CO)N1C(=O)[C@@H]2[C@H]3C(=O)OCC=C[C@H]3OC23C=CCN(c2ccc(Cl)cc2)C(=O)[C@@H]13 (stereo not given in full)" observable="composite z-score" readout_value=-0.0642
compound=CCCC[C@@H]1C[C@H]1[C@@H](NC(=O)c1cccs1)c1ccccc1C(F)(F)F observable="composite z-score" readout_value=0.294

**Q:** Give the reported composite z-score for this compound. [N-]=[N+]=Nc1ccccc1C[C@@]1(C(N)=O)N=C(c2ccc(OCCCO)cc2)O[C@@H]1c1ccccc1N=[N+]=[N-]
**A:** 0.0211

**Q:** Entry CCOC(=O)C[C@H]1[C@H](OC(=O)Cc2ccc3c(c2)OCO3)[C@@H](NC(=O)c2ccc3ccccc3n2)c2cc(OCCCO)ccc2N1C(=O)c1ccccc1 needs its composite z-score filled in; supply it.
**A:** 0.101

**Q:** For the compound CN1C2C=C(CCCO)C(C3C(=O)N(C(N)=O)C(=O)C32)C1C1CC1 (stereo not given) , give its reported composite z-score.
**A:** -0.188

**Q:** Identify composite z-score associated with the compound C=CCC(OC(C)=O)[C@@H]1[C@@H](N(Cc2ccc(-c3cccc(C(F)(F)F)c3)o2)C(=O)c2ccc(-c3ccccc3)cc2)c2cc(OCCCO)ccc2N1C(=O)Cc1ccc2ccccc2c1 (stereo not given in full)
**A:** 0.0451

**Q:** State its composite z-score for this compound: COc1cc(C(O)C2C=CC3C(=O)N(C)C(=O)C3N2Nc2ccccc2)cc(OC)c1OC (stereo not given)
**A:** 0.923

Every entry's value here was drawn from PubChem BioAssay.
